- Test target: ATP-dependent translocase ABCB1 (Homo sapiens)
- Sequence (P08183 whole entry): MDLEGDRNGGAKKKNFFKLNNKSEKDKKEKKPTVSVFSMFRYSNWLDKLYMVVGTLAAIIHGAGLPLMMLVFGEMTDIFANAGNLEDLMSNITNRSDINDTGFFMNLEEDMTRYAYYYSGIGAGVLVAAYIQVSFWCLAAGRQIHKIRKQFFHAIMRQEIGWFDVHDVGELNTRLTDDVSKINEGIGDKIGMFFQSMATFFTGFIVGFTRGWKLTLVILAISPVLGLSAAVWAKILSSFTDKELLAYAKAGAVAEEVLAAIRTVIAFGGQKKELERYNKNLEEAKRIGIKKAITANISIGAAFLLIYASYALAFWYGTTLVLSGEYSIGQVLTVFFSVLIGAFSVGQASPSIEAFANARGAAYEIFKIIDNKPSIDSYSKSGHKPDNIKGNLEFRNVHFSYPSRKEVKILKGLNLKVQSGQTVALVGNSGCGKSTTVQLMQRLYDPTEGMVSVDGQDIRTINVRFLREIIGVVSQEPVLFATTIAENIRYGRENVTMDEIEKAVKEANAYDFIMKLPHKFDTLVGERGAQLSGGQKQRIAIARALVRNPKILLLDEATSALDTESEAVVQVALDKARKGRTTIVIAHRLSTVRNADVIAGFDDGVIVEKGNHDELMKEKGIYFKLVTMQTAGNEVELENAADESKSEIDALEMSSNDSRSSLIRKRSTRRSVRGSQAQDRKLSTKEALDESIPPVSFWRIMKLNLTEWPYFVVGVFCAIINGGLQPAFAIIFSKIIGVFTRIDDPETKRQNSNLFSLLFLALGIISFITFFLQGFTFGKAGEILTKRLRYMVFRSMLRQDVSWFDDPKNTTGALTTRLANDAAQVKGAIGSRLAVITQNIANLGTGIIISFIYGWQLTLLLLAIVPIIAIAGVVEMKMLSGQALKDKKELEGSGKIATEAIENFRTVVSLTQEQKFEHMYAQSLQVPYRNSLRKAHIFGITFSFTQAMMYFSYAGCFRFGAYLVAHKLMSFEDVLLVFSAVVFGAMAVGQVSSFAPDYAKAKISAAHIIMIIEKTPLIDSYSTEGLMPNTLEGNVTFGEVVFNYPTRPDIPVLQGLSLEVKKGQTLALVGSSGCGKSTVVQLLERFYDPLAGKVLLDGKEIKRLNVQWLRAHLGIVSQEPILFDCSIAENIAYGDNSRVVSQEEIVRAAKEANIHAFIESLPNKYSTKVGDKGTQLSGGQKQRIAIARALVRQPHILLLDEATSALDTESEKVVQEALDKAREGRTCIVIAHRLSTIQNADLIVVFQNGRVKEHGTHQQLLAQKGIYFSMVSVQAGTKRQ
- Method notes: Activation of MDR1 (unknown origin) ATPase activity expressed in MDCK cells assessed as decrease in ATP level after 2 hrs by ATPlite assay
- Assay type: cell-based
Observation type: Activity

Please review the following examples before continuing.
| Compound | Activity |
| --- | --- |
| COc1cc2c(cc1OC)CN(Cc1ccc(-c3ccc(OCCCOc4nonc4Sc4ccccc4)cc3)cc1)CC2 | Not Active |
| COc1cc2c(cc1OC)CN(Cc1ccc(-c3ccc(OCCCOc4nonc4Oc4ccccc4)cc3)cc1)CC2 | Not Active |
| COc1cc2c(cc1OC)CN(Cc1ccc(-c3ccc(OCCCOc4nonc4[S+]([O-])c4ccccc4)cc3)cc1)CC2 (stereo not given) | Not Active |
| COc1cc2c(cc1OC)CN(Cc1ccc(-c3ccc(OCCCOc4nonc4OC)cc3)cc1)CC2 | Not Active |
| COc1cc2c(cc1OC)CN(Cc1ccc(-c3ccc(OCCCOc4nonc4C#N)cc3)cc1)CC2 | Not Active |
| COc1cc2c(cc1OC)CN(Cc1ccc(-c3ccc(OCCOc4nonc4[S+]([O-])c4ccccc4)cc3)cc1)CC2 (stereo not given) | Not Active |

Prompt: Find the recorded Activity belonging to COc1cc2c(cc1OC)CN(Cc1ccc(-c3ccc(OCCCOc4nonc4-c4ccccc4)cc3)cc1)CC2 and report it.
Response: Not Active

Prompt: Tell me the measured Activity of COc1cc2c(cc1OC)CN(Cc1ccc(-c3ccc(OCCCOc4nonc4OCc4ccccc4)cc3)cc1)CC2 , please.
Response: Not Active

Prompt: For the compound COc1cc2c(cc1OC)CN(Cc1ccc(-c3ccc(OCCOc4nonc4C#N)cc3)cc1)CC2 , what Activity is on record?
Response: Not Active
